Values were extracted from patent US10323000B2.

target: human P2X7 receptor (Homo sapiens (Human), UniProt Q99572); assay: Pore permeation assay (YO PRO dye uptake); assay type: cell-based
Sequence (Q99572 whole entry): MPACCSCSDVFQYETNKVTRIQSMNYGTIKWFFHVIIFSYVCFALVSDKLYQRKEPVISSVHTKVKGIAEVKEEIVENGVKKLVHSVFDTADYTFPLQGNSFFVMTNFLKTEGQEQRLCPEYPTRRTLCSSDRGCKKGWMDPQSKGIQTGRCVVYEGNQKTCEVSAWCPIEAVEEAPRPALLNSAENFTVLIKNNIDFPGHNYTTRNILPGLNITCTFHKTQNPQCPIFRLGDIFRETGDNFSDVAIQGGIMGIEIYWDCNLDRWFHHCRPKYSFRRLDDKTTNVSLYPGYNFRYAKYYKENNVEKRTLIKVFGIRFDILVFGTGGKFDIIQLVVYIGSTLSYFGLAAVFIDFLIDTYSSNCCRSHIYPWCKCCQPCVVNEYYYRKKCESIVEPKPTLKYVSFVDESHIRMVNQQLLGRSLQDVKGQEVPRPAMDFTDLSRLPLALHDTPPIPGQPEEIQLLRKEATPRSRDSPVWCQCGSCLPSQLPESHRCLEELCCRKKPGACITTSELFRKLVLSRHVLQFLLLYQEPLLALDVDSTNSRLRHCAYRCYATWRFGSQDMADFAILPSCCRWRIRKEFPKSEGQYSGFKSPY
pIC50: −log10 of the molar value.
# pIC50 values compiled below

Consider the following illustrative entries.
[
  {
    "Compound": "COCCn1cc(C(=O)NC[C@]2(O)CCCC(F)(F)C2)c2c(Cl)cccc21 [Compound 20]",
    "Subject Of Test": "human P2X7 receptor (Homo sapiens (Human), UniProt Q99572)",
    "Measured Attribute": "pIC50",
    "Measured": "7.00 to 8.00"
  },
  {
    "Compound": "O=C(NCC1(O)CCCC(F)(F)C1)c1cn(CCN2CCCCC2)c2cccc(Cl)c12 (centres unmarked) [Compound 192]",
    "Subject Of Test": "human P2X7 receptor (Homo sapiens (Human), UniProt Q99572)",
    "Measured Attribute": "pIC50",
    "Measured": "6.30 to 7.00"
  },
  {
    "Compound": "O=C(NCC1CCC(F)(F)CC1)c1cn(CC2CCNCC2)c2cccc(Cl)c12 [Compound 175]",
    "Subject Of Test": "human P2X7 receptor (Homo sapiens (Human), UniProt Q99572)",
    "Measured Attribute": "pIC50",
    "Measured": "6.30 to 7.00"
  },
  {
    "Compound": "C[C@@H]1CCC[C@](O)(CNC(=O)c2cn(CCC(F)F)c3cccc(Cl)c23)C1 [Compound 8]",
    "Subject Of Test": "human P2X7 receptor (Homo sapiens (Human), UniProt Q99572)",
    "Measured Attribute": "pIC50",
    "Measured": "7.00 to 8.00"
  },
  {
    "Compound": "O=C(NCC1(O)CCC(F)(F)CC1)c1cn(C[C@H]2CCCO2)c2cccc(Cl)c12 [Compound 131]",
    "Subject Of Test": "human P2X7 receptor (Homo sapiens (Human), UniProt Q99572)",
    "Measured Attribute": "pIC50",
    "Measured": "7.00 to 8.00"
  },
  {
    "Compound": "C[C@@H]1CCC[C@](O)(CNC(=O)c2cn(CC3CCCO3)c3cccc(Cl)c23)C1 (some centres unmarked) [Compound 143]",
    "Subject Of Test": "human P2X7 receptor (Homo sapiens (Human), UniProt Q99572)",
    "Measured Attribute": "pIC50",
    "Measured": "7.00 to 8.00"
  },
  {
    "Compound": "O=C(NCC1(O)CCC(F)(F)CC1)c1cn(CC2CCOC2)c2cccc(Cl)c12 (centres unmarked) [Compound 147]",
    "Subject Of Test": "human P2X7 receptor (Homo sapiens (Human), UniProt Q99572)",
    "Measured Attribute": "pIC50",
    "Measured": "7.00 to 8.00"
  },
  {
    "Compound": "COCCn1cc(C(=O)NC2COc3ccccc3C2)c2c(Cl)cccc21 (centres unmarked) [Compound 29]",
    "Subject Of Test": "human P2X7 receptor (Homo sapiens (Human), UniProt Q99572)",
    "Measured Attribute": "pIC50",
    "Measured": "6.30 to 7.00"
  },
  {
    "Compound": "CC1CC(O)(CNC(=O)c2cn(C3CCCO3)c3cccc(Cl)c23)CCC1(F)F (centres unmarked) [Compound 97]",
    "Subject Of Test": "human P2X7 receptor (Homo sapiens (Human), UniProt Q99572)",
    "Measured Attribute": "pIC50",
    "Measured": "6.30 to 7.00"
  },
  {
    "Compound": "O=C(NCC1C[C@@H]2CC[C@H]1C2)c1cn(C2CCOC2)c2cccc(Cl)c12 (some centres unmarked) [Compound 105]",
    "Subject Of Test": "human P2X7 receptor (Homo sapiens (Human), UniProt Q99572)",
    "Measured Attribute": "pIC50",
    "Measured": "7.00 to 8.00"
  }
]

Consider the record given below.
Q: Write down the reported pIC50 of O=C(NCC1CCC(F)(F)CC1)c1cn(CCN2CCCC2)c2cccc(Cl)c12 [Compound 179] , test system: human P2X7 receptor (Homo sapiens (Human), UniProt Q99572).
Ans: 6.30 to 7.00
